B1: SH3 and PX domain-containing protein 2B, residues 155 to 209; numbered along this chain, A1X283 (parent)
chain: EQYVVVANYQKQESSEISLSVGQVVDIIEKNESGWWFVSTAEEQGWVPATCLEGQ

Variants of: B1
procedureSummary: abundance fitness (aPCA) (normalised: wild type 0, dead -1); higher = more abundant; growth selection in yeast, the domain comes from the species named
conditionNotes: Homo sapiens
// classify(record): look up abundance fitness in ranges LOW: < -0.3; MEDIUM: ≥ -0.3 and < -0.07; HIGH: ≥ -0.07

Worked examples follow.
mutationList: V6K
classification: HIGH
//
mutationList: K30G
classification: LOW
//
mutationList: P48T
classification: LOW
//
mutationList: E43G
classification: HIGH
//
mutationList: N31I
classification: LOW

Which abundance fitness band matches `T40F` ? HIGH

Which abundance fitness band matches `G45L` ? LOW

Where these numbers come from: the Human Domainome abundance scans (Beltran et al. 2025)
